Values from a melting point compilation (Tetko et al.; mined from patent text by program, amines drawn as free bases though some values may be those of a salt)

Exercise: for every item that follows, state its recorded melting point.

[Q] Name the reported melting point value associated with the compound COC(=O)c1ccc(Cn2nc(OC)c3ccc(N)cc32)c(OC)c1
[A] 188 to 193 °C

[Q] Then what about the compound CCOC(=O)c1cc(=O)c2c(OCC(O)CSC)cccc2o1 (stereo not drawn) ?
[A] 69 to 71 °C

[Q] Then what about the compound Clc1ccc(-c2cc(C3CCN(CCc4ccccc4)CC3)n[nH]2)cc1 ?
[A] 169 to 171 °C

[Q] Then what about the compound FC(F)(F)Oc1ccc2nc(-c3ccc(Cl)cc3)[nH]c2c1 ?
[A] 190 to 192 °C

[Q] Then what about the compound N#CCn1c2ccccc2c2nc3ccccc3nc21 ?
[A] 231 to 232 °C

[Q] Then what about the compound CCOC(=O)C1=C(C)NC(CO)=C(C(=O)OCC)C1c1ccccc1[N+](=O)[O-] (stereo not drawn) ?
[A] 112 to 113 °C

[Q] Then what about the compound CCNC(=O)Nc1n[nH]c2ccc(-c3ncccc3Cl)cc12 ?
[A] 178 to 180 °C

[Q] Then what about the compound CS(=O)(=O)OC(c1cccc(C(OS(C)(=O)=O)(C(F)(F)F)C(F)(F)F)c1)(C(F)(F)F)C(F)(F)F ?
[A] 125 °C
